All values here come from patent US20260297095A1.

- assayed.system: YES1 kinase (Homo sapiens, UniProt P07947)
- Sequence (P07947 whole entry): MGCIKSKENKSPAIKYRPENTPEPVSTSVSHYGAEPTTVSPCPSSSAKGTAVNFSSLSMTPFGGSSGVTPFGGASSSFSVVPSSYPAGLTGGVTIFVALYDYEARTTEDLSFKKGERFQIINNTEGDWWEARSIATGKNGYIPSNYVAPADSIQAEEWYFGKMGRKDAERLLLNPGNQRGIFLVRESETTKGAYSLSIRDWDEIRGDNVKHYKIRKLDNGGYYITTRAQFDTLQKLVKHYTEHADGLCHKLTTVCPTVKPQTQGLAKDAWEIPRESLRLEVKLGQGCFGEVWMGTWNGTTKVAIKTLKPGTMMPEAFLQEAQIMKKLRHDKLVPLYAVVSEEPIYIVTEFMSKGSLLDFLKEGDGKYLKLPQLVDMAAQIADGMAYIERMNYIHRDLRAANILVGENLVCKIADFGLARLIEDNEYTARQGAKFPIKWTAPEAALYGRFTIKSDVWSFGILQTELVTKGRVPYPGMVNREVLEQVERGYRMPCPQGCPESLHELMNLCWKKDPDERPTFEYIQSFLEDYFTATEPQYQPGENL
- assay.remarks: YES1 kinase inhibition, ADP Glo assay (Promega)
- Format: biochemical
- experimental.parameters: compound 10 nM; read-out: YES1 enzyme, % inhibition, 10 nM
Readings of inhibition at 0.01 µM for the listed compounds
Give the value in % but do not write % after it.

Some solved entries appear below for comparison.
>>> endpoint_value("COc1cc(-c2cc(N3CC4(CCN(C)C4)C3)n3ncnc(N)c23)ccc1NC(=O)OC(C)(C)C")
57
>>> endpoint_value("COc1cc(-c2cc(N3CC4CC3CC4N)n3ncnc(N)c23)ccc1NC(=O)OC(C)(C)C (centres unmarked)")
70

Req: Give me measured inhibition at 0.01 µM, please, for this compound: COc1cc(-c2cc(-c3ccc(N(C)C)cc3C)n3ncnc(N)c23)ccc1NC(=O)OC(C)(C)C
Resp: 21

Req: Give me measured inhibition at 0.01 µM, please, for this compound: COc1cc(-c2cc(CCN3CCC(N)CC3)n3ncnc(N)c23)ccc1NC(=O)OC(C)(C)C
Resp: 70

Req: Give me measured inhibition at 0.01 µM, please, for this compound: COc1cc(-c2cc(N3CCN(C4CC4)CC3)n3ncnc(N)c23)ccc1NC(=O)OC(C)(C)C
Resp: 53

---

- Test system: KYSE-70 esophageal cancer cell line
- assay.remarks: Cell growth inhibition of KYSE-70 (Sulforhodamine B)
- Format: cell-based
- experimental.parameters: Homo sapiens; KYSE-70, 72 hours; read-out: KYSE70 GI50
Readings of GI50 for the listed molecules

Some solved entries appear below for comparison.
>>> endpoint_value("COc1cc(-c2c(Cl)c(N3CCC(N(C)C)CC3)n3ncnc(N)c23)ccc1NC(=O)OC(C)(C)C [Example 124]")
"≤ 100 nM"
>>> endpoint_value("CNC1CCN(c2cc(-c3ccc(NC(=O)OC(C)(C)C)c(OC)c3)c3c(N)ncnn23)CC1 [Example 44]")
"≤ 100 nM"
>>> endpoint_value("CN[C@@H]1CCN(c2cc(-c3ccc(NC(=O)OC(C)(C)C)c(OC)c3)c3c(N)ncnn23)C[C@@H]1F [Example 87]")
"≤ 100 nM"
>>> endpoint_value("COc1cc(-c2cc(-c3ccc(N(C)C)c(F)c3)n3ncnc(N)c23)ccc1NC(=O)OC(C)(C)C [Example 4]")
"1000 to 10000 nM"
>>> endpoint_value("CNC1CCN(c2c(C)c(-c3ccc(NC(=O)OC(C)(C)C)c(OC)c3)c3c(N)ncnn23)CC1 [Example 75]")
"≤ 100 nM"

Req: Provide KYSE-70 esophageal cancer cell line GI50 reading for COc1cc(-c2cc(N3CCC(N)CC3)n3ccnc(N)c23)ccc1NC(=O)OC(C)(C)C [Example 132] .
Resp: 100 to 1000 nM

Req: Provide KYSE-70 esophageal cancer cell line GI50 reading for COc1cc(-c2cc(N3CC(C)C(N)C(C)C3)n3ncnc(N)c23)ccc1NC(=O)OC(C)(C)C (stereo not shown) [Example 91] .
Resp: 100 to 1000 nM

Req: Provide KYSE-70 esophageal cancer cell line GI50 reading for CNC1CCN(CCc2cc(-c3ccc(NC(=O)OC(C)(C)C)c(OC)c3)c3c(N)ncnn23)CC1 [Example 99] .
Resp: ≤ 100 nM

Req: Provide KYSE-70 esophageal cancer cell line GI50 reading for CN(C)C1CCN(c2cc(-c3ccc(Oc4ccccc4)cc3)c3c(N)ncnn23)CC1 [Example 136] .
Resp: ≤ 100 nM

Req: Provide KYSE-70 esophageal cancer cell line GI50 reading for COc1cc(-c2cc(N3CCC(CN)CC3)n3ncnc(N)c23)ccc1NC(=O)OC(C)(C)C [Example 59] .
Resp: 100 to 1000 nM

Req: Provide KYSE-70 esophageal cancer cell line GI50 reading for COc1cc(-c2cc(N3CC[C@@H](N)[C@@H](F)C3)n3ncnc(N)c23)ccc1NC(=O)OC(C)(C)C [Example 46] .
Resp: 100 to 1000 nM

Req: Provide KYSE-70 esophageal cancer cell line GI50 reading for COc1cc(-c2cc(N3CCC(N)C(C)C3)n3ncnc(N)c23)ccc1NC(=O)OC(C)(C)C (stereo not shown) [Example 48] .
Resp: ≤ 100 nM

Req: Provide KYSE-70 esophageal cancer cell line GI50 reading for COc1cc(-c2cc(N3CCC4(CC3)CC(=O)N(C)C4)n3ncnc(N)c23)ccc1NC(=O)OC(C)(C)C [Example 27] .
Resp: 1000 to 10000 nM
